- Tgt: T1, Recombinant human MASP1 enzyme (fragment corresponding to amino acids 297-699, C-terminal His Tag) (human, UniProt P48740 297-699)
- T1 sequence: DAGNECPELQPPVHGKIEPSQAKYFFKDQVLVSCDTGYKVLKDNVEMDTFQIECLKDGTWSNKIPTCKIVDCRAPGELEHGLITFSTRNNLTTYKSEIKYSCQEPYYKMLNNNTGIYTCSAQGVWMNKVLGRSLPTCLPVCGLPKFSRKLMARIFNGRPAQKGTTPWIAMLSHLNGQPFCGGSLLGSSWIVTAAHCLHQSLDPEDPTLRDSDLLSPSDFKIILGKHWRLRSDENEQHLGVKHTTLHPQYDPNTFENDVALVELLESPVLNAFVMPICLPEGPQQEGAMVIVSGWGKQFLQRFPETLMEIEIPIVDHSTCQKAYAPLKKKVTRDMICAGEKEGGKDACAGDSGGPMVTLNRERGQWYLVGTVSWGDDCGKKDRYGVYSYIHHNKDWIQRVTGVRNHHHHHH
- Test: cell-based or functional assay
Bridge positions count the residues as written; N and C are the ends. Square brackets hold non-standard residues; d marks the D form. Ends that are not written are not given here. Oic = O=C(O)[C@@H]1C[C@@H]2CCCC[C@@H]2N1; Pen = CC(C)(S)[C@H](N)C(=O)O; Sar = CNCC(=O)O
Recorded human MASP1 IC50, one value per entry.
Express your answer in nM, writing the number without its unit.

- Binder: "[Sar]ICSRSLP[Oic]I[Pen]I[5‑Azaspiro(2.4)heptane‑1‑carboxylic acid]-OH (disulfide 3-11) [((N-Me)G)-IC+SRSLP-(Oic)-I-(Pen)+I-((5-Azaspiro[2.4]heptane-1-carboxylic acid)-OH]"
  human MASP1 IC50 / nM: 4

q: # lookup: human MASP1 IC50 of ICSRSLP[Oic]I[Pen]IP-OH (disulfide 2-10; N-terminus assumed; SMILES CC[C@H](C)[C@H](N)C(=O)N[C@H]1CSSC(C)(C)[C@@H](C(=O)N[C@H](C(=O)N2CCC[C@H]2C(=O)O)[C@@H](C)CC)NC(=O)[C@H]([C@@H](C)CC)NC(=O)[C@@H]2C[C@@H]3CCCC[C@@H]3N2C(=O)[C@@H]2CCCN2C(=O)[C@H](CC(C)C)NC(=O)[C@H](CO)NC(=O)[C@H](CCCNC(=N)N)NC(=O)[C@H](CO)NC1=O) [IC+SRSLP-(Oic)-I-(Pen)+IP-OH]
a: 11
